biological target: PRKCA (human) (UniProt P17252); assay: radiometric filter-binding kinase assay; settings: compound 0.1 µM
Reported Endpoint: residual activity (%)

> print(dat)
                                   compound  observed.result
1  O=C(N[C@@H](COc1ccc2[nH]c(=O)[nH]c2c1)c1ccccc1)c1cccn(Cc2ccc(F)c(F)c2)c1=O               99

I = Cc1cc(NC(=O)c2cccc(NC(=O)/C=C/CN(C)C)c2)ccc1Nc1nccc(-c2cccnc2)n1
II = Cc1ccc(Sc2cnc(Nc3cccc(Br)n3)s2)cc1C(=O)N1CCN(C(=O)CN)CC1
Please state the entry with greater residual activity among I and II . // respond with label for picked entry
I

---

target: UniProtKB Q99683; assay: radiometric filter-binding kinase assay; conditions: compound 10.0 µM
Sequence (Q99683 whole entry, looked up): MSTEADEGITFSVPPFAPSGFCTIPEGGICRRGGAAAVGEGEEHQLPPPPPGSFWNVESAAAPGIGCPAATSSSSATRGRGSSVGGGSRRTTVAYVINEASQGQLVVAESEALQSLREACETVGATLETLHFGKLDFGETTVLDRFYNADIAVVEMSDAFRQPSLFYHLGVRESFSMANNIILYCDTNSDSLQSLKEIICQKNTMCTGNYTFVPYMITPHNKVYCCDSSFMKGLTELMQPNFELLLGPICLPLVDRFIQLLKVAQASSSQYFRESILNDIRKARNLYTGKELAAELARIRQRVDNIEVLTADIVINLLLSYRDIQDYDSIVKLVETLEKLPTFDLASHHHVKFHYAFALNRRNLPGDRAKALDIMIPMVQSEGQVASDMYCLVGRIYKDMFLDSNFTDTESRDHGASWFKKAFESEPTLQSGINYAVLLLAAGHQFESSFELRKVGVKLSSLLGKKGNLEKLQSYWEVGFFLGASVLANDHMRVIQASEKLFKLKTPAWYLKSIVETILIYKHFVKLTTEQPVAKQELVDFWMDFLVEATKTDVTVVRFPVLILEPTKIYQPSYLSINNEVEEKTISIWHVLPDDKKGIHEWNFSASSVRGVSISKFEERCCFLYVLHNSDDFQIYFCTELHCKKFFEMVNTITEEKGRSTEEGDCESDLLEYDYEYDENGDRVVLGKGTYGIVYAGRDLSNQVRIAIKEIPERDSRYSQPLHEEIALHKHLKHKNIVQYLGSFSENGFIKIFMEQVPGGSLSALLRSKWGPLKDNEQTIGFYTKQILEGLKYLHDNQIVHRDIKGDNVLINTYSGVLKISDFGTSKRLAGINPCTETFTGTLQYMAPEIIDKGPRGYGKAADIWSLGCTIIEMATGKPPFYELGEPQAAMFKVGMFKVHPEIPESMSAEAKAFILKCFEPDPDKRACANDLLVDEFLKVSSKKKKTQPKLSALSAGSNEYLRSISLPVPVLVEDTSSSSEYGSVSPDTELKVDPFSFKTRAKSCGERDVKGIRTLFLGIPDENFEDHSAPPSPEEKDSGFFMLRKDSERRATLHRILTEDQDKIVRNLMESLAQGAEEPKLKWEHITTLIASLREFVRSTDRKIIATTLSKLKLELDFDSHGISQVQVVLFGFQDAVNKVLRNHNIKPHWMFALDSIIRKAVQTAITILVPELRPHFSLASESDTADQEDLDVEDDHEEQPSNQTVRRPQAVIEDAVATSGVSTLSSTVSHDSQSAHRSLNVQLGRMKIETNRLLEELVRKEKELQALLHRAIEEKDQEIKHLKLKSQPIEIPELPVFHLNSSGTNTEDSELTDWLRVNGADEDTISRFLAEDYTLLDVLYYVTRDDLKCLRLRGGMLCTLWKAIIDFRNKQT
Reported Endpoint: residual activity (%)

Reference set, count: 2
> print(dat)
                                  compound  reading.unit  observed.result
1  Cc1nc(-c2ccc(OCC(C)C)c(C#N)c2)sc1C(=O)O             %              127
2   CCn1c(-c2nonc2N)nc2cncc(CNC3CCNCC3)c21             %               97

a = NC(=O)c1c(NC(=O)C2CC2)sc2c1CCCC2
b = N#Cc1c(O)c2c(-c3ccc(-c4ccccc4O)cc3)csc2[nH]c1=O
c = COc1cc(C(=O)N2CCOCC2)c(F)cc1Nc1ncc(C(F)(F)F)c(NC2CC2)n1
Order by residual activity, ascending. Lab note: record answer as labels in requested order.
c, a, b

P = O=C(Nc1ccccc1-c1cn2c(CN3CCNCC3)csc2n1)c1cnc2ccccc2n1
Q = Cc1ccc(-c2ccc3c(ccc4sc5c(c43)NC[C@@H](C)NC5=O)n2)cn1
Lower value for measured residual activity? Options: P , Q // respond with label for picked entry
Q

A = FC(F)(F)c1ccc(-c2ccc(Oc3cncc4sc(-c5nn[nH]n5)cc34)cc2)cc1
B = O=C(NOCC(O)CO)c1ccc(F)c(F)c1Nc1ccc(I)cc1Cl (stereo unspecified)
Please state the entry with greater residual activity among A and B . // respond with label for picked entry
B

---

system: AKT1 (human), P31749 [S473D]; assay: radiometric filter-binding kinase assay; settings: compound 1.0 µM
Sequence (P31749 whole entry S473D, looked up): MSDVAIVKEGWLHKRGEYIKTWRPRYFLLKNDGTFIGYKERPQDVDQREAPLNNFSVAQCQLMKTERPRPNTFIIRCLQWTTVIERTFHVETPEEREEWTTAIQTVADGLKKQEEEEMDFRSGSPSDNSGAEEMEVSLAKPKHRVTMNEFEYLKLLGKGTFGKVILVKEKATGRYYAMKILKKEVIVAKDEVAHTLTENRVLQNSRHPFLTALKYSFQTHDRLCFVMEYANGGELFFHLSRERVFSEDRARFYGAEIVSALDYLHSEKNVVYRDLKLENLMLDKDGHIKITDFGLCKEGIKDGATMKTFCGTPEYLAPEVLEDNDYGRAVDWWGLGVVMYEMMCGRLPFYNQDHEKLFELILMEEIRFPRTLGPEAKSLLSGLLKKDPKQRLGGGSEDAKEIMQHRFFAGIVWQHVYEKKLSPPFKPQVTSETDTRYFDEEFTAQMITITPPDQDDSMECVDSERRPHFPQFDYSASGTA
Reported Endpoint: residual activity (%)

> print(dat)
                                   compound  observed.result
1  NC(=O)c1ccc(-c2ccc(Oc3cncc4sc(-c5nn[nH]n5)cc34)cc2)cc1               96
2  CN(C)C/C=C/C(=O)Nc1cccc(C(=O)Nc2ccc(Nc3nccc(-c4cccnc4)n3)cc2)c1              104
3        Oc1ccc2ccccc2c1SSc1c(O)ccc2ccccc12               87
4  O=C(O)c1ccc(-c2c[nH]c3ncc(-c4ccccc4)cc23)cc1C1CCCC1               72
5  CCNc1nc(Nc2cc(F)c(C(=O)N3CCOCC3)cc2OC)ncc1C(F)(F)F              102

a = O=C(Nc1ccccc1-c1cn2c(CN3CCNCC3)csc2n1)c1cnc2ccccc2n1
b = CCn1c(-c2nonc2N)nc2cncc(CNC3CCNCC3)c21
c = COc1ccc2c(c1)c1c3c(c4c5ccccc5n(C)c4c1n2CC(O)CN(C)C)C(=O)NC3=O (stereo not given)
Order by residual activity, ascending. Lab note: record answer as labels in requested order.
b, c, a

---

molecular target: UniProtKB P29323; assay: radiometric filter-binding kinase assay; conditions: compound 1.0 µM
Sequence (P29323 whole entry, looked up): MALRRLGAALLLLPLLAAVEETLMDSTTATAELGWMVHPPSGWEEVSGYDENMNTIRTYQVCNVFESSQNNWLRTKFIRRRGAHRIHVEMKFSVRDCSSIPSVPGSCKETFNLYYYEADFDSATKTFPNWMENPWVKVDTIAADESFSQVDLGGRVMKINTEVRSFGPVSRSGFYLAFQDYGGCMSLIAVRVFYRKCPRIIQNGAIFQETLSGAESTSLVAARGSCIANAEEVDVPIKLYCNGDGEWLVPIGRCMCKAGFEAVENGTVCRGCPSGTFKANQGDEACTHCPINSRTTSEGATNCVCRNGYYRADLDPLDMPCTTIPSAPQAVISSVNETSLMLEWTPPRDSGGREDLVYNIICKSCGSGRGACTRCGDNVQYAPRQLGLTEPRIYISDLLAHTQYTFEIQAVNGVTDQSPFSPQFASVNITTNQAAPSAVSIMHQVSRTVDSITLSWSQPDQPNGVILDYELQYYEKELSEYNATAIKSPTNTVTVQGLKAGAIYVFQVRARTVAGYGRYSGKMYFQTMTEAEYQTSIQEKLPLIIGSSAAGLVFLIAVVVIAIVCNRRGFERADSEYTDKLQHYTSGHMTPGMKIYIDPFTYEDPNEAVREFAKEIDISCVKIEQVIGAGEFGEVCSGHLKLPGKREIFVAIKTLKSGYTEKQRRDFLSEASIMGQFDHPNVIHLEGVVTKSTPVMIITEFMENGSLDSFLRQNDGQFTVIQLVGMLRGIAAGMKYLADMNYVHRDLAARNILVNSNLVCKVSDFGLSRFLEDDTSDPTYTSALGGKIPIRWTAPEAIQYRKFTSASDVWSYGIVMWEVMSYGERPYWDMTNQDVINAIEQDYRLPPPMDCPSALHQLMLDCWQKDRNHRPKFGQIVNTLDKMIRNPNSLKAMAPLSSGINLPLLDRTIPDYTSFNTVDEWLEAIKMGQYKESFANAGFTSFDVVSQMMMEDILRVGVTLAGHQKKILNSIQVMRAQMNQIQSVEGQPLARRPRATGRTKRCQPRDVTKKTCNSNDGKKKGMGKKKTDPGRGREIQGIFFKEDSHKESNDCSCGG
Reported Endpoint: residual activity (%)

Reference set, count: 2
> print(dat)
                                smiles.repr  observed.result
1  O=c1c(O)c(-c2ccc(O)c(O)c2)oc2cc(O)c(O)c(O)c12               69
2  Cc1ccc(-c2ccc3c(ccc4sc5c(c43)NC[C@@H](C)NC5=O)n2)cn1              110

A = NCC(=O)Nc1ccc(-n2nc(C(F)(F)F)cc2-c2ccc3c(ccc4ccccc43)c2)cc1
B = N#Cc1c(C2CCNCC2)cc(-c2c(O)cccc2OCC2CC2)nc1N
Please state the entry with greater residual activity among A and B . // respond with label for picked entry
B
(B: 119%, A: 82%)

---

molecular target: MAPK13 (human); assay: radiometric filter-binding kinase assay; settings: compound 0.01 µM
Reported Endpoint: residual activity (%)

> print(dat)
                                   compound  reported.endpoint  reading.unit  observed.result
1  COc1cc(O)c2c(c1)[C@H]1OC1C[C@H](O)[C@H](O)C(=O)/C=C\C[C@H](C)OC2=O (stereo partly specified)  residual activity             %              101
2  O=C(Nc1nc2cc(C(F)(F)F)cc(NC3CC3)n2n1)c1cccnc1  residual activity             %              102
3  CNC(=O)C1[C@H]2O[C@@](C)([C@@H]1N)n1c3ccccc3c3c4c(c5c6ccccc6n2c5c31)C(=O)NC4 (stereo partly specified)  residual activity             %              100
4  COc1ccc(N(C(=O)Nc2c(C)cccc2C)c2cc(Nc3ccc(N4CCN(C)CC4)cc3)ncn2)c(OC)c1  residual activity             %              102
5  C/C(=C1/C(=O)Nc2ccc(NC(N)=O)cc21)c1ccc[nH]1  residual activity             %               89
6  CNc1nc(-c2ccc3c(N)n[nH]c3c2)cc(N2C[C@@H](C(=O)NC3CCCCC3)CC[C@H]2C)n1  residual activity             %              106

---

target: UniProt P51955; test: radiometric filter-binding kinase assay; conditions: compound 0.01 µM
Sequence (P51955 whole entry, looked up): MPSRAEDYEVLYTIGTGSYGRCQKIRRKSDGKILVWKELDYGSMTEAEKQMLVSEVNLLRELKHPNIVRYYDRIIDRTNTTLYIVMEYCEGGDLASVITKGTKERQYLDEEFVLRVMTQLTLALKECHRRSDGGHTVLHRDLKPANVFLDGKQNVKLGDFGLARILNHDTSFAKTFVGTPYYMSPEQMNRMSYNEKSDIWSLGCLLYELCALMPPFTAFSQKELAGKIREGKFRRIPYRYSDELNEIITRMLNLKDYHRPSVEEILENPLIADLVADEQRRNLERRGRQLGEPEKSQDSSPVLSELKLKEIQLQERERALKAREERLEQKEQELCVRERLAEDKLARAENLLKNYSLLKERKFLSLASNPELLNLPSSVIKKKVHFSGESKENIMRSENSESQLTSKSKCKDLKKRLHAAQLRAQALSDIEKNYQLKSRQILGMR
Reported Endpoint: residual activity (%)

> print(dat)
                                   compound  reported.endpoint  observed.result
1  CNc1nc(-c2ccc3c(N)n[nH]c3c2)cc(N2C[C@@H](C(=O)NC3CCCCC3)CC[C@H]2C)n1  residual activity              118
2  CNC(=O)C1[C@H]2O[C@@](C)([C@@H]1N)n1c3ccccc3c3c4c(c5c6ccccc6n2c5c31)C(=O)NC4 (stereo partly specified)  residual activity              105
3  COc1cc(O)c2c(c1)[C@H]1OC1C[C@H](O)[C@H](O)C(=O)/C=C\C[C@H](C)OC2=O (stereo partly specified)  residual activity              103
4  O=C(Nc1nc2cc(C(F)(F)F)cc(NC3CC3)n2n1)c1cccnc1  residual activity               97
5  C/C(=C1/C(=O)Nc2ccc(NC(N)=O)cc21)c1ccc[nH]1  residual activity               92
6  COc1ccc(N(C(=O)Nc2c(C)cccc2C)c2cc(Nc3ccc(N4CCN(C)CC4)cc3)ncn2)c(OC)c1  residual activity              112

---

target: INSRR (human); assay: radiometric filter-binding kinase assay; conditions: compound 0.1 µM
Reported Endpoint: residual activity (%)

Compound	residual activity [%]
CN(C)C/C=C/C(=O)Nc1cccc(C(=O)Nc2ccc(Nc3nccc(-c4cccnc4)n3)cc2)c1	72

1 = CN1CCN(CCOc2cc(OC3CCOCC3)c3c(Nc4c(Cl)ccc5c4OCO5)ncnc3c2)CC1
2 = NC(=O)c1cc2c(-c3cccc(-c4ccccc4)c3)cnc(N)c2s1
Please state the entry with greater residual activity among 1 and 2 . // respond with label for picked entry
1

a = O=C(Nc1ccccc1-c1cn2c(CN3CCNCC3)csc2n1)c1cnc2ccccc2n1
b = COc1ccc(N(C(=O)Nc2c(C)cccc2C)c2cc(Nc3ccc(N4CCN(C)CC4)cc3)ncn2)c(OC)c1
Please state the entry with greater residual activity among a and b . // respond with label for picked entry
b
(b: 112%, a: 73%)

---

target: MARK2 (human); assay: radiometric filter-binding kinase assay; settings: compound 10.0 µM
Reported Endpoint: residual activity (%)

Reference set, count: 8
> print(dat)
                                   molecule  observed.result
1  CC(C)(C#N)c1ccc(N2C(=O)OCc3cnc4ccc(-c5cnc6ccccc6c5)cc4c32)cc1               95
2  N#Cc1c(C2CCNCC2)cc(-c2c(O)cccc2OCC2CC2)nc1N               96
3  FC(F)(F)c1ccc(-c2ccc(Oc3cncc4sc(-c5nn[nH]n5)cc34)cc2)cc1               84
4  O=c1c(O)c(-c2ccc(O)c(O)c2)oc2cc(O)c(O)c(O)c12               26
5  O=C(NOCC(O)CO)c1ccc(F)c(F)c1Nc1ccc(I)cc1Cl (stereo not given)              101
6  Nc1cccc2c1CN(C1CCC(=O)NC1=O)C2=O (stereo not given)              104
7  Cc1ccc2c(c1)C(=O)[C@@]1(O)CCN(c3ccccc3)C1=N2               93
8                       COC(=O)/C=C/C(=O)OC               91

A = NS(=O)(=O)OC[C@@H]1C[C@@H](n2ccc3c(N[C@H]4CCc5ccccc54)ncnc32)C[C@@H]1O
B = Cc1nc(-c2ccc(OCC(C)C)c(C#N)c2)sc1C(=O)O
Lower value for measured residual activity? Options: A , B // respond with label for picked entry
B
(B: 59%, A: 88%)

Cited source for all entries: the kinase profiling compilation of Christmann-Franck et al. (2016)
